test system: CD-1 mouse plasma; test: Plasma protein binding rate assay (equilibrium dialysis); type: in vitro ADME; conditions: compound 1 μM, equilibrium dialysis 6 hours at 37° C.
measurement name: % Binding Rate

Cc1cc(Nc2ccc(-c3cnc([C@H]4CC[C@H](NC(=O)OC(C)C)CC4)s3)c(P3(=O)CCC3)c2)n[nH]1 = 98%
CC(C)OC(=O)N[C@H]1CC[C@H](c2ncc(-c3ccc(Nc4cn(C)nn4)cc3S(=N)(=O)C3CC3)s2)CC1 (stereo partly shown) = 95%
CC(C)OC(=O)N[C@H]1CC[C@H](c2ncc(-c3ccc(Nc4cc5ccccn5n4)cc3S(=O)(=O)C3CC3)s2)CC1 = 99.9%^
CC(C)OC(=O)Nc1ccc(-c2cnc(C3CCC(NC(=O)OC(C)C)CC3)s2)c(S(=N)(=O)C(C)C)c1 (stereo not shown) = 97%
Cc1cc(Nc2ccc(-c3cnc([C@H]4CC[C@H](NC(=O)OC(C)C)CC4)s3)c(S(=O)(=O)C3COC3)c2)n[nH]1 = 98.8%^
CC(C)OC(=O)Nc1ccc(-c2cnc([C@H]3CC[C@H](NC(=O)OC(C)C)CC3)s2)c(S(=O)(=O)C(C)C)c1 = 99.4%^
Cc1cc(Nc2ccc(-c3cnc([C@H]4CC[C@H](NC(=O)OC(C)C)CC4)s3)c(S(=O)(=O)C3CC3)c2)nn1C = 97%
Cc1cc(Nc2ccc(-c3cnc([C@H]4CC[C@H](NC(=O)OC(C)C)CC4)s3)c(S(=O)(=O)C3CC3)c2)n[nH]1 = 99%
CC(C)OC(=O)Nc1ccc(-c2cnc([C@H]3CC[C@H](NC(=O)OC(C)C)CC3)s2)c(S(=O)(=O)C2CC2)c1 = 99%
COc1ccc(-c2ccc(-c3cnc([C@H]4CC[C@H](NC(=O)OC(C)C)CC4)s3)c([S@@](=N)(=O)C3CC3)c2)cn1 (stereo in doubt) = 99.8%^

Challenge: Any idea what % Binding Rate was measured for CC(C)OC(=O)N[C@H]1CC[C@H](c2ncc(-c3ccc(NC(=O)NCc4ccccc4)cc3S(=N)(=O)C3CC3)s2)CC1 (stereo partly shown) ?
Response given: 97%

Challenge: Any idea what % Binding Rate was measured for `CC(C)OC(=O)N[C@H]1CC[C@H](c2ncc(-c3ccc(Nc4n[nH]c5ccccc45)cc3S(=O)(=O)C3CC3)s2)CC1` ?
Response given: 97%

Challenge: Any idea what % Binding Rate was measured for CC(C)OC(=O)Nc1ccc(-c2cnc(C3CCC(NC(=O)OC(C)C)CC3)s2)c([S+]([O-])C(C)C)c1 (stereo not shown) ?
Response given: 99%

Challenge: Any idea what % Binding Rate was measured for CC(C)OC(=O)Nc1ccc(-c2cnc([C@H]3CC[C@H](NC(=O)OC(C)C)CC3)s2)c(S(=N)(=O)C2CC2)c1 (stereo partly shown) ?
Response given: 97%

Challenge: Any idea what % Binding Rate was measured for CC(C)OC(=O)NC1CCC(c2ncc(-c3ccc(Nc4ccc(F)cn4)cc3S(=N)(=O)C3CC3)s2)CC1 (stereo not shown) ?
Response given: 99.7%^

Challenge: Any idea what % Binding Rate was measured for `CC(C)OC(=O)Nc1ccc(-c2cnc([C@H]3CC[C@H](NC(=O)OC(C)C)CC3)s2)c(P(C)(C)=O)c1` ?
Response given: 94%

Challenge: Any idea what % Binding Rate was measured for Cc1cc(Nc2ccc(-c3cnc([C@H]4CC[C@H](NC(=O)OC(C)C)CC4)s3)c(S(=N)(=O)C3CC3)c2)n(C)n1 (stereo partly shown) ?
Response given: 99%

Challenge: Any idea what % Binding Rate was measured for `Cc1cc(Nc2ccc(-c3cnc([C@H]4CC[C@H](NC(=O)OC(C)C)CC4)s3)c(P3(=O)CCCC3)c2)n[nH]1` ?
Response given: 99%

Challenge: Any idea what % Binding Rate was measured for Cc1cc(Nc2ccc(-c3cnc(C4CCC(NC(=O)OC(C)C)CC4)s3)c(S(=N)(=O)C3CC3)c2)n[nH]1 (stereo not shown) ?
Response given: 96%

Reference source for all entries: patent US20230142274A1
